Attribution: patent US20190031665A1

System: human indoleamine 2,3-dioxygenase 1 (hIDO1) (Homo sapiens, UniProt P14902)
Construct: His tag (N); purchased BPS Bioscience, San Diego, Calif., USA; host or cells: E. coli
Sequence (P14902 whole entry): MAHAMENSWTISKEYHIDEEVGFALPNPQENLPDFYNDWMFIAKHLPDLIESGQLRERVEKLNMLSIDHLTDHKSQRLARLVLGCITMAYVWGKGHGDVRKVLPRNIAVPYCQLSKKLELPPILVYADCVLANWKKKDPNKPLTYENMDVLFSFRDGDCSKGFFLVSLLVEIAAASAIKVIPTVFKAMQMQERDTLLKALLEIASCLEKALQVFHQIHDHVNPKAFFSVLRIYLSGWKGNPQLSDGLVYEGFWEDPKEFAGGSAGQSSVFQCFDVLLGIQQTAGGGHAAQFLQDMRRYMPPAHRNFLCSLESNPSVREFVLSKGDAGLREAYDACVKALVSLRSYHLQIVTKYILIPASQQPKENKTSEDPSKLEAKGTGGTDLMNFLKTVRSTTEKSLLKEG
Assay Method Text: In-vitro human indoleamine 2,3-dioxygenase 1 (IDO1) enzyme assay
Type: biochemical
Experimental Conditions: hIDO1 enzyme at 10.0 μM concentration
Measurement Name: inhibition at 10 µM

Record for CC1=C(c2ccccc2)C(CC(O)C2CCN(S(=O)(=O)c3ccccc3)CC2)n2cncc21 (centres unmarked) under target or system human indoleamine 2,3-dioxygenase 1 (hIDO1) (Homo sapiens, UniProt P14902): inhibition at 10 µM reported as ≥ 50%

Record for CC1=C(c2ccccc2)C(CC(F)C2CCCCC2)n2cncc21 (centres unmarked) under target or system human indoleamine 2,3-dioxygenase 1 (hIDO1) (Homo sapiens, UniProt P14902): inhibition at 10 µM reported as ≥ 50%

Record for CC1=C(c2ccccc2)C(CC(=O)C2CCC(C(=O)Nc3ccc(Cl)cc3C)CC2)n2cncc21 (centres unmarked) under target or system human indoleamine 2,3-dioxygenase 1 (hIDO1) (Homo sapiens, UniProt P14902): inhibition at 10 µM reported as ≥ 50%

Record for CC1=C(c2ccccc2)C(CC(=O)c2ccc(-c3ccc(O)cc3)cc2)n2cncc21 (centres unmarked) under target or system human indoleamine 2,3-dioxygenase 1 (hIDO1) (Homo sapiens, UniProt P14902): inhibition at 10 µM reported as ≥ 50%

Record for CNC(=O)C1CCC(C(=O)CC2C(c3ccccc3)=C(C)c3cncn32)CC1 (centres unmarked) under target or system human indoleamine 2,3-dioxygenase 1 (hIDO1) (Homo sapiens, UniProt P14902): inhibition at 10 µM reported as ≤ 50%

Record for CC1=C(c2ccccc2)C(CC(O)C2CCN(C(=O)c3ccnc(C)c3)CC2)n2cncc21 (centres unmarked) under target or system human indoleamine 2,3-dioxygenase 1 (hIDO1) (Homo sapiens, UniProt P14902): inhibition at 10 µM reported as ≥ 50%

Record for CC1=C(c2ccccc2)C(CC(=O)C2CCC(=NO)CC2)n2cncc21 (centres unmarked) under target or system human indoleamine 2,3-dioxygenase 1 (hIDO1) (Homo sapiens, UniProt P14902): inhibition at 10 µM reported as ≥ 50%

Record for CC1=C(c2ccccc2)C(CC(O)c2ccc(-c3ccncc3)cc2)n2cncc21 (centres unmarked) under target or system human indoleamine 2,3-dioxygenase 1 (hIDO1) (Homo sapiens, UniProt P14902): inhibition at 10 µM reported as ≥ 50%

Record for CC1=C(c2ccccc2)C(CC(=O)c2cccc(Br)c2)n2cncc21 (centres unmarked) under target or system human indoleamine 2,3-dioxygenase 1 (hIDO1) (Homo sapiens, UniProt P14902): inhibition at 10 µM reported as ≥ 50%

Record for CC1=C(c2ccccc2)C(CC(=O)c2ccc(-c3ccsc3)cc2)n2cncc21 (centres unmarked) under target or system human indoleamine 2,3-dioxygenase 1 (hIDO1) (Homo sapiens, UniProt P14902): inhibition at 10 µM reported as ≥ 50%

Record for CC1=C(c2ccccc2)C(CC(O)C2CCN(C(=O)Nc3cccc(C)n3)CC2)n2cncc21 (centres unmarked) under target or system human indoleamine 2,3-dioxygenase 1 (hIDO1) (Homo sapiens, UniProt P14902): inhibition at 10 µM reported as ≥ 50%

Record for Cc1ccc(S(=O)(=O)N2CCC3=C(C2)C(CC(O)c2ccccc2)n2cncc23)cc1 (centres unmarked) under target or system human indoleamine 2,3-dioxygenase 1 (hIDO1) (Homo sapiens, UniProt P14902): inhibition at 10 µM reported as ≤ 50%

Record for CC1=C(c2ccccc2)C(CC(=O)c2ccc(-c3ccncc3)cc2)n2cncc21 (centres unmarked) under target or system human indoleamine 2,3-dioxygenase 1 (hIDO1) (Homo sapiens, UniProt P14902): inhibition at 10 µM reported as ≥ 50%

Record for CC1=C(c2ccccc2)C(CC(=O)N2CCC(O)CC2)n2cncc21 (centres unmarked) under target or system human indoleamine 2,3-dioxygenase 1 (hIDO1) (Homo sapiens, UniProt P14902): inhibition at 10 µM reported as ≤ 50%

Record for CC1=C(c2ccccc2)C(CC(=O)C2CCC(O)CC2)n2cncc21 (centres unmarked) under target or system human indoleamine 2,3-dioxygenase 1 (hIDO1) (Homo sapiens, UniProt P14902): inhibition at 10 µM reported as ≥ 50%

Record for CC1=C(c2ccccc2)C(CC(=O)c2ccc(-c3cncnc3)cc2)n2cncc21 (centres unmarked) under target or system human indoleamine 2,3-dioxygenase 1 (hIDO1) (Homo sapiens, UniProt P14902): inhibition at 10 µM reported as ≥ 50%

Record for CC1=C(c2ccccc2)C(CC(=O)c2ccc(C3CCCCC3)cc2)n2cncc21 (centres unmarked) under target or system human indoleamine 2,3-dioxygenase 1 (hIDO1) (Homo sapiens, UniProt P14902): inhibition at 10 µM reported as ≥ 50%

----------
I'd appreciate it if you could supply inhibition at 10 µM values for the items below.
System: human indoleamine 2,3-dioxygenase 1 (hIDO1) (Homo sapiens, UniProt P14902)
Construct: His tag (N); purchased BPS Bioscience, San Diego, Calif., USA; host or cells: E. coli
Assay Method Text: In-vitro human indoleamine 2,3-dioxygenase 1 (IDO1) enzyme assay
Assay type: biochemical
Experimental Conditions: hIDO1 enzyme at 10.0 μM concentration
Source text: In-vitro human indoleamine 2,3-dioxygenase 1 (IDO1) enzyme assay: In the in-vitro human indoleamine 2,3-dioxygenase 1 (hIDO1) enzyme assay for screening inhibitor compounds, hIDO1 with an N-terminal histidine tag expressed and purified from E. coli (BPS Bioscience, San Diego, Calif., USA) was used. All other materials were procured from Sigma-Aldrich, St. Louis, Mo., USA. […]

Record for O=C(CC1C2=C(CCCC2)c2cncn21)c1cc(F)ccc1F (stereo not shown) under target or system human indoleamine 2,3-dioxygenase 1 (hIDO1) (Homo sapiens, UniProt P14902): inhibition at 10 µM reported as ≤ 50%

Record for CC1=C(c2ccccc2)C(CC(O)C2CCN(C(=O)c3cccnc3)CC2)n2cncc21 (stereo not shown) under target or system human indoleamine 2,3-dioxygenase 1 (hIDO1) (Homo sapiens, UniProt P14902): inhibition at 10 µM reported as ≥ 50%

Record for CC1=C(c2ccccc2)C(CC(O)C2CCN(C(=O)Nc3cccc(Cl)c3)CC2)n2cncc21 (stereo not shown) under target or system human indoleamine 2,3-dioxygenase 1 (hIDO1) (Homo sapiens, UniProt P14902): inhibition at 10 µM reported as ≥ 50%

Record for CC1=C(c2ccccc2)C(CC(O)C2CCC(O)CC2)n2cncc21 (single isomer, unassigned) [Example 121] under target or system human indoleamine 2,3-dioxygenase 1 (hIDO1) (Homo sapiens, UniProt P14902): inhibition at 10 µM reported as ≥ 50%

----------
System: human tryptophan 2,3-dioxygenase (hTDO) (Homo sapiens)
Construct: His tag (N); purchased BPS Bioscience, San Diego, Calif., USA; host or cells: E. coli
Sequence (P48775 whole entry): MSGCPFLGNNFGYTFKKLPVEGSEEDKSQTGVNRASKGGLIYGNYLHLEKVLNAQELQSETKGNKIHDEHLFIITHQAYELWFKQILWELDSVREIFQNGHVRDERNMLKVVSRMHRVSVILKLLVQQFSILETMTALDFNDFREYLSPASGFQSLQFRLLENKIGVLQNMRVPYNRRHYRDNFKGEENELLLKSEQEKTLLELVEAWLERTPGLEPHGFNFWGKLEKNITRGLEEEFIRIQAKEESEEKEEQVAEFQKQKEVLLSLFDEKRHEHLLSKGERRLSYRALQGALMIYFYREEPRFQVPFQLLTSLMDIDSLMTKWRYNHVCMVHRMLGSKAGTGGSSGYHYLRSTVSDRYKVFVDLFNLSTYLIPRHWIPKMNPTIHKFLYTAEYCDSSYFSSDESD
Assay Method Text: In-vitro human tryptophan 2,3-dioxygenase (TDO) enzyme assay
Assay type: biochemical
Experimental Conditions: hTDO enzyme at 1.0 μM concentration
Measurement Name: inhibition at 1 µM

Record for CC1=C(c2ccccc2)C(C[C@H](O)C2CCC(C(=O)Nc3cccnc3)CC2)n2cncc21 (stereo partly drawn) under target or system human tryptophan 2,3-dioxygenase (hTDO) (Homo sapiens): inhibition at 1 µM reported as ≥ 50%

Record for CC1=C(c2ccccc2F)C(CC(=O)C2CCC(O)CC2)n2cncc21 (single isomer, unassigned) under target or system human tryptophan 2,3-dioxygenase (hTDO) (Homo sapiens): inhibition at 1 µM reported as ≥ 50%

Record for CC1=C(c2ccccc2)C(C[C@@H](O)C2CCCN2S(=O)(=O)c2ccc(C)cc2)n2cncc21 (stereo partly drawn) under target or system human tryptophan 2,3-dioxygenase (hTDO) (Homo sapiens): inhibition at 1 µM reported as ≥ 50%

Record for CC1=C(c2ccccc2)C(CC(=O)c2ccc(F)cc2)n2cncc21 (stereo not drawn) under target or system human tryptophan 2,3-dioxygenase (hTDO) (Homo sapiens): inhibition at 1 µM reported as ≥ 50%

Record for CC1=C(c2ccccc2)C(CC(O)C2CCN(C(=O)c3ccncc3)CC2)n2cncc21 (stereo not drawn) under target or system human tryptophan 2,3-dioxygenase (hTDO) (Homo sapiens): inhibition at 1 µM reported as ≤ 50%

Record for CC1=C(c2ccccc2)C(CC(=O)c2ccc(C(=O)Nc3ccc(Cl)cc3)cc2)n2cncc21 (stereo not drawn) under target or system human tryptophan 2,3-dioxygenase (hTDO) (Homo sapiens): inhibition at 1 µM reported as ≥ 50%

----------
System: human indoleamine 2,3-dioxygenase 1 (hIDO1) (Homo sapiens)
Construct: His tag (N); purchased BPS Bioscience, San Diego, Calif., USA; host or cells: E. coli
Assay Method Text: In-vitro human indoleamine 2,3-dioxygenase 1 (IDO1) enzyme assay
Format: biochemical
Experimental Conditions: hIDO1 enzyme at 1.0 μM concentration
Measurement Name: inhibition at 1 µM

Short answer for CC1=C(c2ccccc2)C(CC(=O)c2ccc(F)c(Cl)c2)n2cncc21 (centres unmarked) : inhibition at 1 µM was ≥ 50%

Short answer for CC1=C(c2ccccc2)C(CC(=O)C2CCCN2S(=O)(=O)c2ccc(C)cc2)n2cncc21 (centres unmarked) : inhibition at 1 µM was ≤ 50%

Short answer for CC1=C(c2ccccc2)C(CC(=O)N2CCC(O)CC2)n2cncc21 (centres unmarked) : inhibition at 1 µM was ≤ 50%

Short answer for CC1=C(c2ccccc2)C(CC(O)C2CCC(=NO)CC2)n2cncc21 (centres unmarked) : inhibition at 1 µM was ≥ 50%

Short answer for CC1=C(c2cccc(Cl)c2)C(CC(=O)C2CCCCC2)n2cncc21 (centres unmarked) : inhibition at 1 µM was ≤ 50%

Short answer for CC1=C(c2ccccc2)C(CC(O)C2CCN(C(=O)C3CCCCC3)CC2)n2cncc21 (centres unmarked) : inhibition at 1 µM was ≥ 50%

Short answer for CC1=C(c2cccc(Cl)c2)C(CC(O)C2CCCCC2)n2cncc21 (centres unmarked) : inhibition at 1 µM was ≤ 50%

Short answer for CC1=C(c2ccccc2)C(CC(=O)C2CCC(=NO)CC2)n2cncc21 (centres unmarked) : inhibition at 1 µM was ≤ 50%

Short answer for CC1=C(c2ccccc2)C(CC(=O)c2ccc(-c3ccc(C(F)(F)F)cc3)cc2)n2cncc21 (centres unmarked) : inhibition at 1 µM was ≤ 50%

Short answer for CC1=C(c2ccccc2)C(CC(=O)C2CCC(C(=O)Nc3ccccc3)CC2)n2cncc21 (centres unmarked) : inhibition at 1 µM was ≤ 50%

Short answer for CC1=C(c2ccccc2)C(CC(=O)c2ccc(-c3ccc(-c4ccccc4)cc3)cc2)n2cncc21 (centres unmarked) : inhibition at 1 µM was ≤ 50%

Short answer for CC1=C(c2ccccc2)C(CC(=O)C2CCC(C(=O)N3CCC(=O)CC3)CC2)n2cncc21 (centres unmarked) : inhibition at 1 µM was ≤ 50%

Short answer for CC1=C(c2ccccc2)C(CC(O)C2CCN(C(=O)Nc3cccc(Cl)c3)CC2)n2cncc21 (centres unmarked) : inhibition at 1 µM was ≥ 50%

Short answer for CC1=C(c2ccccc2)C(CC(=O)c2ccc(Br)cc2)n2cncc21 (centres unmarked) : inhibition at 1 µM was ≥ 50%

Short answer for COc1ccc(C(=O)CC2C(c3ccccc3)=C(C)c3cncn32)cc1 (centres unmarked) : inhibition at 1 µM was ≥ 50%

Short answer for CCCCCCCCC(O)CC1C(c2ccccc2)=C(C)c2cncn21 (centres unmarked) : inhibition at 1 µM was ≥ 50%

Short answer for CC1=C(c2ccccc2)C(CC(O)C2CCN(Cc3ccccc3)CC2)n2cncc21 (centres unmarked) : inhibition at 1 µM was ≤ 50%

Short answer for CC1=C(c2ccccc2)C(CC(O)C2CCC(O)CC2)n2cncc21 (centres unmarked) [Example 127] : inhibition at 1 µM was ≥ 50%

Short answer for CC1=C(c2ccccc2)C(CC(=O)c2ccc(C(=O)Nc3ccccc3)cc2)n2cncc21 (centres unmarked) : inhibition at 1 µM was ≥ 50%

Short answer for CC1=C(c2ccccc2)C(C[C@H](O)C2CCC(C(=O)NC3CCCCC3)CC2)n2cncc21 (some centres unmarked) : inhibition at 1 µM was ≥ 50%

Short answer for CC1=C(c2ccccc2)C(C[C@@H](O)C2CCCN2S(=O)(=O)c2ccc(C)cc2)n2cncc21 (some centres unmarked) : inhibition at 1 µM was ≤ 50%

Short answer for CC1=C(c2ccccc2)C(CC(O)CCC(=O)N2CCC(O)CC2)n2cncc21 (centres unmarked) : inhibition at 1 µM was ≤ 50%

Short answer for CC1=C(c2ccccc2)C(CC(=O)c2cccc3ccccc23)n2cncc21 (centres unmarked) : inhibition at 1 µM was ≥ 50%

Short answer for CC1=C(c2ccccc2)C(CC(=O)c2ccc(-c3ccccc3)cc2)n2cncc21 (centres unmarked) [Example 41] : inhibition at 1 µM was ≥ 50%

Short answer for CC1=C(c2ccccc2)C(CC(=O)c2cccc(Br)c2)n2cncc21 (centres unmarked) : inhibition at 1 µM was ≥ 50%

Short answer for CC1=C(c2ccccc2)C(CC(O)C2CCN(C(=O)Nc3cccc(C)n3)CC2)n2cncc21 (centres unmarked) : inhibition at 1 µM was ≥ 50%

Short answer for OC(CC1C(c2ccccc2)=C(c2ccccc2)c2cncn21)C1CCCCC1 (centres unmarked) : inhibition at 1 µM was ≤ 50%

Short answer for CC1=C(c2ccccc2)C(CC(=O)c2ccc(-c3ccsc3)cc2)n2cncc21 (centres unmarked) : inhibition at 1 µM was ≥ 50%

Short answer for CC1=C(c2ccccc2)C(CC(O)C2CCN(S(=O)(=O)c3ccccc3)CC2)n2cncc21 (centres unmarked) : inhibition at 1 µM was ≥ 50%
